# assay_method_text: yeast display, Sf9 membrane polyspecificity reagent, FACS + sequencing; frameworks hold sequencing errors
metric_name: polyreactivity (PSR sort gate)

>>> measured_value("QVQLVESGGGLVQAGGSLRLSCAASGSIFYDYVMGWYRQAPGKERELVAAISVSGGRTYYADSVKGRFTISRDNAKNTVYLQMNSLKPEDTAVDYCAAKYPAGGRNYDYWGQGTQVTVSS")
"high polyreactivity"
>>> measured_value("QVQLVESGGGLVQAGGSLRLISAASGRTFYSNAMGWYRQAPGKERELVAAITKSGGRTYYADSVKGRFTISRDNAKNTDYLQMNSLIPEDTAVYYCKALVAAYYGYDYWGQGTQVTVSS")
"high polyreactivity"
>>> measured_value("QVQLVESGGGIVQAGGSLRLSCAASGFISYRNAMGWDRMAPGKERELVASITSSGGRTYYADSVKGRFTISRDNAKNTVYLQMNSLKPEDTAVYDWAADNWYKKQKRPSAYDYWGQGTQVSVSS")
"high polyreactivity"

* * *

# assay_method_text: yeast display, Sf9 membrane polyspecificity reagent, FACS + sequencing; frameworks hold sequencing errors
metric_name: polyreactivity (PSR sort gate)

>>> measured_value("QVQHVESGGGLVQAGGSLRLSCAASGLNFTRYVMGWYRQAPGKERELVAVISSGGSTYYADSVKGRFTISRDNAKNTVYLQMNSLKPEDTAVYYCAAYLRYSQVTYDYWGQGTQVTVSS")
"high polyreactivity"
>>> measured_value("QVQLVESGGGLVQAGGRLRLSCAASGSIFPANAMGGSRQAPGKERELVAGISERGSSTYYADSVKGRFTISRDNAKNTVYLQMNSLKPEDTAVYYCAADDVGRYWSSTHNWARGDYWGQGTQVTVSS")
"low polyreactivity"
>>> measured_value("QVQLVESGGGLGQAGGSLRLSCAASGSIFGRYTMGWYRQAPGKERELVAAITLRGGSTYYADSVKGRFTISRDNAKNTVYLQMNSLKPEDTAVYYCATDGWKQSAYDYWGQGTQVTVSS")
"low polyreactivity"
>>> measured_value("QVQLVESGGGLVQAGGSLRLSCAASGRTFRYYVMGWYRQAPGKERELVAAISRTGGNTYYADSVKGRFTISRDNAKNTVYLQMNSLKPEDTAVYYCNTVRRPSSWRYDYWGQGTQVTVSS")
"high polyreactivity"
>>> measured_value("QVQLVESGGGLVQAGGSLRLSCAASGSIFTGYAMGWYRQAPGKDRELVAAISWRGGGTYYADSVQGRFTISRDNAKNTVYLQMNSQKPEDTAVYDCAAVTKFGQYAPGSKGYGYWGQATQVTVSS")
"low polyreactivity"
>>> measured_value("QVQLVESGGGLVQAGGILRLSCAASGSIFRNYAMGWYRQAPGKERELVAAISVRGGSTYYADSVKGRFTISRDNTKNTVYLQMNSLKPEDTAVYYCNARTYYPVYYRDGGYWGQGTQVTVSS")
"high polyreactivity"
>>> measured_value("QVQLVESGGGLVQAGGSLRLSCGASGRIFGPYTMGWARQGPGKERELVARISRRGGSTYYADSVKGRFTISRDNAKNTVYLQMNSLKPEDTAVYYCARSQAVYDGWFAKFGYWGQGTQVTVSS")
"low polyreactivity"
>>> measured_value("QVQLVDSGGGLVQAGGSLRLICAASGSTFYHYAMGWYRQAPGKERELVAAISSSGGRTYYADSVKGRFTISRDNAKNTVYLQMNSLKPEDTAVYYCAARAKTSGSIEDYWGQGTQVTVSS")
"high polyreactivity"
>>> measured_value("QVQLVESGGGLVQAGGSLRLSCAASGITFTVNAMGWYRQAPGKERELVAAITYSGGNTYYADSVKGRFTISRDTAKNTVYLQMNSLKPEDTAVYYCAADNWPWPEKPDKSILYDYWGQGTQVTVSS")
"low polyreactivity"
>>> measured_value("QVQLVESGGGLVQAGGSLRLSCAASGFTFQTYAMGWYRQAPGKERELVATINSSGGGTYYADSVKGRFTISRDNAKNTVYLQMNSLKPEDTAVYYCAADAVWFVGQAFDISDSTTYGYWGQGTQVTVSS")
"low polyreactivity"
>>> measured_value("QVQLVESGGGLVQAGGSLRLSCAASRITSYGYAMGWYRQAPGKERELVAAISRSGGTTYYADSVKGRFTISRDNAKNTVYVQMNILKPEDTAVYYCAVGKSHRGGGVTKFNYWGQGTQVTVSS")
"low polyreactivity"

* * *

# assay_method_text: yeast display, Sf9 membrane polyspecificity reagent, FACS + sequencing; frameworks hold sequencing errors
metric_name: polyreactivity (PSR sort gate)

>>> measured_value("QVQLVESGGGLVQAGGSLSLSCAASGFIFGGYAMGWYRQAPGKERELVAAITWSGGNTYYADSVKGRFTISRDNAKNTVYLQMNSLKPEATAVYYCAADYWTKYVYWGQGTQVTVSS")
"low polyreactivity"
>>> measured_value("QVQLVESGGGLVQAGGSLRLSCAASGRIIRGNAMGWYRQAPGKERELVAAISVRGGNTRYADSVKGRFTISRDNAKNSVYLQMNSLKPEDTAVYFCKKRSYLPEMEYWGQGSQVTVSS")
"low polyreactivity"
>>> measured_value("QVQLVESGGGLVQAGGSLRLSCAASGRTFLWYTMGWYRQAPGKERELVAAISGSGGSTYYADSVKGRFTISRDNAKNTVYLQMNSLKPEDTAVYYCNAVRGYRYDYWGQGTQVTVSS")
"high polyreactivity"
>>> measured_value("QVQLVESGGGLVQAGGSLRLSCAASGYTFKVYAMGWYRQAPGKERELVAAIRSSGGSTYADSVKGRFTISRDNAKNTVYLQMNSLKPEDTAVYYCAKAGYVSGLYSATRYEYWGQGTQVTVSS")
"low polyreactivity"
>>> measured_value("QVQLVESGGGLVQAGGSLRLSCAASGSTLLGYTMGWYRQAPGKERELVAVISWSGGGTYYADSVKGRFTISRDNAKNTVYLQMNSLKPEDTAVYYCAAETVLGYWYYRKYYYWGQGTQVTVSS")
"high polyreactivity"

* * *

# assay_method_text: yeast display, Sf9 membrane polyspecificity reagent, FACS + sequencing; frameworks hold sequencing errors
metric_name: polyreactivity (PSR sort gate)

>>> measured_value("QVQLVESGGGLVQAGGSLRLSCAASGGTYGTNAMGWYRQAPGKERELVAAITKTGVRTYYADSVKGRFTISRDNAKNTVYLQMNSLKPEDTAVYYCAAGNPAWPFNYWGQGTQVTVSS")
"high polyreactivity"
>>> measured_value("QDQLVESGGGLVQAGGSHRLSCAASGRNFNYNAMGWYRQAPGKERELVAAISGSGGRTYYADSVKGRFTISRDNAKNTVYLQMNSLKPEDTAVYYCAAAGYDSNGRYWGQGTLVTVSS")
"high polyreactivity"
>>> measured_value("QVQLVESGGGLVQAGGSLRLSCAASGSIFRWNAMGWYRQAPGKERELVAAITYSGGTTYYADSVKGRFTISRDNAKNTVYLQMNSLKPEDTAVYYCAATYYDYYRLYHLGYWGQGTQVTVSS")
"high polyreactivity"

* * *

# assay_method_text: yeast display, Sf9 membrane polyspecificity reagent, FACS + sequencing; frameworks hold sequencing errors
metric_name: polyreactivity (PSR sort gate)

>>> measured_value("QVQLVESGGGLVQAGGSLRLSCAASGRTFVNYTMGWDRQAPGKERELVAAIRYRDGSTYYADSVKGRFTISRDNAKNTVYLQMNSLKPEDTAVYYCNTRITQVGDYIYDYWGQGTQVTVSS")
"low polyreactivity"
>>> measured_value("QVQLVESGGGLVQAGGSLRLSCAASGSTFPYYAMGWYRQAPGKERELVAAISSSGSRTYYADSVKGRFTISRDNAKNTVYLQMNSLKPEDTAVYYCAADNAAQPYPAGMDYWGQGTQVTVSS")
"low polyreactivity"
>>> measured_value("QVQLVESGGGLVQAGGSLRLSCAASGFIFYRYAMGWYRQAPGKESELVAAISRSGGSKYYADSVKGRFTISRDLANNTVYLQLNSLKPEDTAVYYCATPVHRKLYLVNYWGQGTQVTVSS")
"low polyreactivity"
>>> measured_value("QVQLVESGGGLVQAGGSLRLSCAASGLTFYRNAMGWYRQAPGKERELVAAITKSGARTYYAVSVKGRFTISRDNAKNTVYLQMNSLKPEDTAVYYCAADALNTYYYWGQGTQVTVSS")
"high polyreactivity"
>>> measured_value("QVQLVESGGGVVQAGGSLRLSCAASGRTFWRYAMGWYRQAPGKERELVAAITSGGGSTYYADSVKGRFTISRDNAKNTVYLQMNSLKPEDTAVYYCNRAGRGSSFKGDYWGQGTQVTVSS")
"high polyreactivity"

* * *

# assay_method_text: yeast display, Sf9 membrane polyspecificity reagent, FACS + sequencing; frameworks hold sequencing errors
metric_name: polyreactivity (PSR sort gate)

>>> measured_value("QVQLVESGGGLVQAGGSLRISCAASGRTFLSYGMGWYRQAPGKERELVATIDDSGSTYYADSVKGRFTISRDNAKNTVYLQMNSLKPEDTAVYYCATDRQVFYWDFWYIEYDYGGQGTQVTVSS")
"high polyreactivity"
>>> measured_value("QVQLVESGGGLVQAGGSIRLSFPASGRTFAYNAMGRYRPAPGKERELVADITSGGSTYYADSVKGRFTISRENAKNTVYLQMNRLKREDTAVYYCAAYPQFWYWDYNYWGQGTQVTVSS")
"high polyreactivity"

Each recorded value in this set is attributed to the nanobody polyreactivity screen of Harvey et al. (2022).
